Provide the reported polymerase ribozyme fitness (log ratio) of each item.
B1: TPR t1 (parent)
chain: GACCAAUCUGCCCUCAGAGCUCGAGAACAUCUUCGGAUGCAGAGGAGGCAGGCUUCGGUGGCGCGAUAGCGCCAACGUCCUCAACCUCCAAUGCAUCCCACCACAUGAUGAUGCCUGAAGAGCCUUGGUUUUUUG

Variants of: B1
Assay: polymerase ribozyme fitness, log enrichment relative to wild type (log ratio); higher = more active; in vitro selection for triplet polymerase activity

Answered examples (3):
mutant-code | polymerase ribozyme fitness (log ratio)
U9A C49G G93C G120A U131A | 0.443
U9G A46C G61A U87A G93C C115A U116C A119C | -3.51
C62U A84C C89A C123U | -1.62

Below is a list of variants. For each, state its recorded polymerase ribozyme fitness (log ratio).
1. C12G C53A C73G G107C U112C
2. A41U G93C

1: -3.66; 2: -2.07

Attribution: the RNAGym collection of RNA variant scans (doi:10.1073/pnas.2313332121)
